Recorded values, source ChEMBL document CHEMBL2218924.

Target: Tyrosine-protein kinase HCK (Homo sapiens)
Settings: at 10 µM
Returns one of class 1 or class 0; class 1 when residual activity is >= 60%.

Previously resolved entries follow.
- smilesStructure: "O=c1cc(N2CCOCC2)oc2c1ccc1ccccc12"
  testSystem: "Tyrosine-protein kinase HCK (Homo sapiens)"
  classLabel: "class 1"
- smilesStructure: "NCCNc1ncc(C(N)=O)c(Nc2cccc(C(F)(F)F)c2)n1"
  testSystem: "Tyrosine-protein kinase HCK (Homo sapiens)"
  classLabel: "class 0"
- smilesStructure: "CC(C)c1nn(-c2c(Cl)cccc2Cl)c2nc(Cc3ccc(OCCO)cc3)[nH]c(=O)c12"
  testSystem: "Tyrosine-protein kinase HCK (Homo sapiens)"
  classLabel: "class 1"
- smilesStructure: "COc1cc2c(cc1OC)-c1n[nH]c(Nc3cccc(F)c3)c1C2"
  testSystem: "Tyrosine-protein kinase HCK (Homo sapiens)"
  classLabel: "class 0"

Q: Is it the case that O=C1Nc2ccccc2/C1=C\c1c(Cl)[nH]c2ccccc12 has residual activity reaching or exceeding 60%?
Result: class 1
